Source listed as patent US20150143553A1.

# Tested on: Drosophila larvae expressing wild-type TDP-43 in motor neurons
# protocol summary: Drug screen: rescue of lethality caused by wild-type TDP-43 expression in motor neurons (D42 Gal4)
# Assay type: in vivo
# test settings: transgene WT2; 50 μM in fly food
Counter-ions that a name gives are not always drawn.
measured endpoint: Preliminary rescue result: adults with normal wings

CCN(CC)C(=O)c1ccc(O)c(OC)c1 :: 1 Adult Normal Wings Adults
CCc1ccc(CCOc2ccc(CC3SC(=O)NC3=O)cc2)nc1 (stereo not drawn) :: 1 Adult Normal Wings Adults
Cc1onc(-c2c(Cl)cccc2Cl)c1C(=O)N[C@@H]1C(=O)N2[C@@H]1SC(C)(C)[C@@H]2C(=O)O [Dicloxacillin Sodium Salt] :: 1 Adult Normal Wings Adults
